Biological target: T1, HLA-DR4 (HLA-DRB1*04:01) (human)
T1 construct: mature; purified from homozygous EBV-transformed lymphoblastoid cells with antibody L243
Assay: competition ELISA vs biotin-HA 306-318;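 further: HLA and competitor incubated 24 to 72 h, maximal signal taken from wells lacking competitor, background from wells lacking HLA molecule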
No end group written: not given here.
reported.metric: relative affinity

In [3]: df
Out[3]:
                                      binder    reported_metric  result
 0       SKYEEMYPPEIGDFA-NH2 [CCNB1 256-270]  relative affinity     456
 1       FAFVTDNTYTKHQIR-NH2 [CCNB1 269-283]  relative affinity     0.4
 2       NTYTKHQIRQMEMKI-NH2 [CCNB1 275-289]  relative affinity     456
 3       GEWTPTLQHYLSYTE-NH2 [CCNB1 359-373]  relative affinity     500
 4       QGLTKHMTVKNKYAT-NH2 [CCNB1 392-406]  relative affinity     577
 5       REVTGNMRAILIDWL-NH2 [CCNB1 195-209]  relative affinity     260
 6       KHMTVKNKYATSKHA-NH2 [CCNB1 396-410]  relative affinity     408
 7         KPLEKVPMLVPVPVS-NH2 [CCNB1 81-95]  relative affinity     500
 8  H-KNVVMVNQGLTKHMT-NH2 (not fully specified) [CCNB1 385-399]  relative affinity     986
 9       EKLSPEPILVDTASP-NH2 [CCNB1 113-127]  relative affinity      55
10        PMLVPVPVSEPVPEP-NH2 [CCNB1 87-101]  relative affinity      96
11       PNLCSEYVKDIYAYL-NH2 [CCNB1 164-178]  relative affinity     527
12       LDYDMVHFPPSQIAA-NH2 [CCNB1 332-346]  relative affinity     289
13       RALNFGLGRPLPLHF-NH2 [CCNB1 291-305]  relative affinity    1410
14       QAFSDVILAVNDVDA-NH2 [CCNB1 144-158]  relative affinity      12
15       PKYLLGREVTGNMRA-NH2 [CCNB1 189-203]  relative affinity      34
16       DRFMQNNCVPKKMLQ-NH2 [CCNB1 231-245]  relative affinity      52
